Provenance of the data: ChEMBL document CHEMBL1151229

For each of the compounds below, state its GI50.
- System: BXPC-3
- PROTOCOL_NOTES: Cytotoxicity against human BxPC3 cells
- Type: functional
I only need the number, in µg/mL, no unit after it.

Field GI50 (entry COc1cc(C)c2c(=O)c3c(O)cc(OC)cc3oc2c1 ) reads 2.5

Memo: C[C@H]1[C@@H](O)[C@@H](C)[C@@]2(O[C@@H]1C)[C@@H](C)[C@H]1OC(=O)[C@]2(C)C(=O)[C@@H]1C , reported GI50: 7

Consider C=C(C)[C@@H]1CC[C@]2(C(=O)O)CC[C@]3(C)[C@H](CC[C@@H]4[C@@]5(C)CC[C@H](O)C(C)(C)[C@@H]5CC[C@]43C)[C@@H]12 . Its measured GI50 is 0.85

Short answer for CC1(C)C=Cc2cc3ccc(=O)oc3cc2O1 : GI50 was 5.5
